assay: Toxicity in sc dosed mouse; format: organism-based; details: in vivo
READOUT NAME: LD50
Be sure to follow the number with its unit.

LD50 lookup needed for `C=CCN1CC2CC(C1)c1ccccc12.O=C(O)C(=O)O` , thanks.
47 mg/kg

----------
system: Mus musculus; test: Toxicity in sc dosed mouse; format: organism-based; details: in vivo

>  <SMILES STR>
CC(C)=CCN1CC2CC(C1)c1ccccc12.O=C(O)C(=O)O

>  <Activity>
Toxic

$$$$
>  <SMILES STR>
CN1CC2CC(C1)c1ccccc12.O=C(O)C(=O)O

>  <Activity>
Toxic

$$$$
>  <SMILES STR>
CCCN1CC2CC(C1)c1ccccc12.O=C(O)C(=O)O

>  <Activity>
Toxic

$$$$
>  <SMILES STR>
O=C(O)C(=O)O.c1ccc2c(c1)C1CC2CN(CC2CC2)C1

>  <Activity>
Toxic

$$$$
